- system_under_test: Ba/F3 stable cells (Homo sapiens, UniProt P00533, DUP771-773, cells depend on it)
- Construct: EC50 Ba/F3-EGFR H773-V774insNPH; other: Ba/F3-EGFR H773-V774insNPH cells, 72 h, CCK-8
- Sequence (P00533 with tags, fused parts or gaps DUP771-773): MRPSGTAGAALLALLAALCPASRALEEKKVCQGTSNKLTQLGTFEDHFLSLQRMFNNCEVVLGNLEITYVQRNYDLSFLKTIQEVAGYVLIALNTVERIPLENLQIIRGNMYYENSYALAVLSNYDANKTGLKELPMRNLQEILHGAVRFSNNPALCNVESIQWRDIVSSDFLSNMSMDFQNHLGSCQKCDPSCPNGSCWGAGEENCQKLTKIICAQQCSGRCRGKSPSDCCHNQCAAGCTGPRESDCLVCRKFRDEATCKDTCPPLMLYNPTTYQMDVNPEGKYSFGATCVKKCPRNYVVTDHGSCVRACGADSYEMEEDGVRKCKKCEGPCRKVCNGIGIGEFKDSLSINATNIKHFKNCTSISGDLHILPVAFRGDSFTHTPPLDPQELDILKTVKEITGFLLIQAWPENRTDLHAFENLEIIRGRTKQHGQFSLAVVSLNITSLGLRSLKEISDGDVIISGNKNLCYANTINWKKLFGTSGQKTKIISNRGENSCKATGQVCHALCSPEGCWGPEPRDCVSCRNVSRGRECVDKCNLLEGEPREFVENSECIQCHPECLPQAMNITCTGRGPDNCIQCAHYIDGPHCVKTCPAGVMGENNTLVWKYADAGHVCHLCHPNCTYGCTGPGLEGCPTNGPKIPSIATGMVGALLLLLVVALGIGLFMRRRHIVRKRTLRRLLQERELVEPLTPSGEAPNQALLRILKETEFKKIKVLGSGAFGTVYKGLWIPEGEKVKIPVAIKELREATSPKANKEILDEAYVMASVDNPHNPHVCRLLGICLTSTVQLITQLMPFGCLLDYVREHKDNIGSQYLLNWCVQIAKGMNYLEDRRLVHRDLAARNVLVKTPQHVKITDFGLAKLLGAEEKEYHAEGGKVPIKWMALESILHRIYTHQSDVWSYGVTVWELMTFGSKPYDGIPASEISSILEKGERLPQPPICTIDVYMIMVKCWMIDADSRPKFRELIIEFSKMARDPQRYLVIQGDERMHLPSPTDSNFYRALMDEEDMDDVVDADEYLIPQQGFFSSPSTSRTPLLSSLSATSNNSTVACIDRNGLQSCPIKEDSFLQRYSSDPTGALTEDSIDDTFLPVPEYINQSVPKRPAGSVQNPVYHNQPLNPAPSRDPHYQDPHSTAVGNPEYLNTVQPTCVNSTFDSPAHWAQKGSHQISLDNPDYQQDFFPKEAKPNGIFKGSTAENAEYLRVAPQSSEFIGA
- test_method_notes: EC50 assay: Ba/F3 stable cell proliferation (CCK-8, 72 h)
- experimental_parameters: Ba/F3-EGFR H773-V774insNPH cells
pEC50: −log10 of the molar value.
// reported pEC50 per item

molecule: C=C(F)C(=O)N[C@H]1C[C@@H](Oc2cc3c(Nc4ccc(Cl)c(Cl)c4F)ncnc3cc2OC)C1
system_under_test: Ba/F3 stable cells (Homo sapiens, UniProt P00533, DUP771-773, cells depend on it)
pEC50: 6.00 to 6.70
//
molecule: C=CC(=O)N1CCC(Oc2cc3c(Nc4ccc5[nH]ccc5c4)ncnc3cc2OC)CC1
system_under_test: Ba/F3 stable cells (Homo sapiens, UniProt P00533, DUP771-773, cells depend on it)
pEC50: ≥ 6.70
//
molecule: C=CC(=O)NC1CC(Oc2cc3c(Nc4ccc(F)c5c4CCC5O)ncnc3cc2OC)C1 (stereo not shown)
system_under_test: Ba/F3 stable cells (Homo sapiens, UniProt P00533, DUP771-773, cells depend on it)
pEC50: < 6.00
//
molecule: C=CC(=O)N1CC=C(c2c(OC)cc3ncnc4c3c2N(C)C(=O)N4c2ccc(Cl)c(Cl)c2F)CC1
system_under_test: Ba/F3 stable cells (Homo sapiens, UniProt P00533, DUP771-773, cells depend on it)
pEC50: < 6.00

###

- system_under_test: Ba/F3 stable cells (Homo sapiens, UniProt P04626, DUP772-775, cells depend on it)
- Construct: EC50 Ba/F3-HER2 A775-G776insYVMA; other: Ba/F3-HER2 A775-G776insYVMA cells, 72 h, CCK-8
- Sequence (P04626 with tags, fused parts or gaps DUP772-775): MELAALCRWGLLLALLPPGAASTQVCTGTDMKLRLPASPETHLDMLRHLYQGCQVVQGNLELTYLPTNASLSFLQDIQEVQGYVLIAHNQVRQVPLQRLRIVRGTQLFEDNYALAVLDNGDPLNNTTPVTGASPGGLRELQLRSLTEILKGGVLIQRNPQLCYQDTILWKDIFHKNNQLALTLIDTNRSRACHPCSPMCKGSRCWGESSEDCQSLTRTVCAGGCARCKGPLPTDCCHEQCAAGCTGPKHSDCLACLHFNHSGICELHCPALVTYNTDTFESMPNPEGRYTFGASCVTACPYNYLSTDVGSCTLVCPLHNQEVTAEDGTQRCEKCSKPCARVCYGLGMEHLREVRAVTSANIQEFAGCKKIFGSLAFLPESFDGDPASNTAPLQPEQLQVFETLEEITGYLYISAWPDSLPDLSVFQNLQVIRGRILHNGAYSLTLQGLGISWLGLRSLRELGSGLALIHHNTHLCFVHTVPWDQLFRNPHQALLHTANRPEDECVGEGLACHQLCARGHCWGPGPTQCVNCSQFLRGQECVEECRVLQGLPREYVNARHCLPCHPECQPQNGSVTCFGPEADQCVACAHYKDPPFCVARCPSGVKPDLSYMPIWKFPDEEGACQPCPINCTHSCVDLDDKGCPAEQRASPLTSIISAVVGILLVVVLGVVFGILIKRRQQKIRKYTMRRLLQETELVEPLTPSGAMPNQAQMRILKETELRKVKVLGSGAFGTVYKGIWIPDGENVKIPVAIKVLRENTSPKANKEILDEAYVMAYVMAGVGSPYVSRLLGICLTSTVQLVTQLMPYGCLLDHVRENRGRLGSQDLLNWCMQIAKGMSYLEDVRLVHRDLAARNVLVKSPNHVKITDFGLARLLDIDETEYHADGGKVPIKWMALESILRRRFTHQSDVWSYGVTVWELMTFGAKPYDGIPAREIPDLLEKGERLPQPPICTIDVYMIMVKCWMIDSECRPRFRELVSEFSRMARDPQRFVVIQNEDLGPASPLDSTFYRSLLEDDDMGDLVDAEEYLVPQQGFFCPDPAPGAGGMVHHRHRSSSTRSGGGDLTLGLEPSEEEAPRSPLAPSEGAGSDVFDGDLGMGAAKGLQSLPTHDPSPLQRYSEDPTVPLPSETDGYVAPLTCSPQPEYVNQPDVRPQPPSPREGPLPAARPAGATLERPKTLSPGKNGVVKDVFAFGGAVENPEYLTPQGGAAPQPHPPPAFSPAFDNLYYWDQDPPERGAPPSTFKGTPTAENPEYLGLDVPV
- test_method_notes: EC50 assay: Ba/F3 stable cell proliferation (CCK-8, 72 h)
- Type: cell-based
- experimental_parameters: Ba/F3-HER2 A775-G776insYVMA cells
pEC50: −log10 of the molar value. Structures can show the parent of a compound that is named as a salt.
readout_type: pEC50

compound: C=CC(=O)N1CCC(Oc2cc3c(C(=O)N[C@H](C)c4ccc(F)cc4)ncnc3cc2OC)CC1
readout_type: pEC50
result: < 6.00

compound: C=CC(=O)N1CCC(Oc2c(OC)cc3ncnc4c3c2NC(=O)N4c2ccc(Cl)c(Cl)c2F)CC1
readout_type: pEC50
result: 6.00 to 6.70

compound: C=CC(=O)N[C@H]1C[C@@H](Oc2cc3c(Nc4cccc5ccccc45)ncnc3cc2OC)C1
readout_type: pEC50
result: 6.00 to 6.70

compound: C=CC(=O)N[C@H]1C[C@H](Oc2cc3c(Nc4ccc(Cl)c(Cl)c4F)ncnc3cc2OC)C1
readout_type: pEC50
result: 6.00 to 6.70

compound: C=CC(=O)N1CCC(Oc2cc3c(Nc4ccc5c(c4)CCN5)ncnc3cc2OC)CC1
readout_type: pEC50
result: ≥ 6.70

compound: C=CC(=O)N1CCC(Oc2cc3c(Nc4ccc5cnccc5c4)ncnc3cc2OC)CC1
readout_type: pEC50
result: < 6.00

compound: C=CC(=O)N1CC(c2cc3c(Nc4ccc(Cl)c(Cl)c4F)ncnc3cc2OCC)C1
readout_type: pEC50
result: ≥ 6.70

compound: C=CC(=O)NC1CC(Oc2cc3c(Nc4ccc(C)c5c4CCC5)ncnc3cc2OC)C1 (centres unmarked)
readout_type: pEC50
result: < 6.00

compound: C=CC(=O)N1C2CCC1CC(Oc1cc3c(Nc4ccc5ccccc5c4)ncnc3cc1OC)C2 (centres unmarked)
readout_type: pEC50
result: ≥ 6.70

compound: COc1cc2ncnc(Nc3ccc(Cl)c(Cl)c3F)c2cc1OC1CC(NC(=O)/C=C/CN(C)C)C1 (centres unmarked)
readout_type: pEC50
result: 6.00 to 6.70

compound: C=CC(=O)N1CCC(Oc2cc3c(NC(C(=O)O)c4cccc(Cl)c4)ncnc3cc2OC)CC1 (centres unmarked)
readout_type: pEC50
result: < 6.00

compound: C=CC(=O)N[C@H]1CC[C@H](Oc2cc3c(Nc4ccc(Cl)c(Cl)c4F)ncnc3cc2OC)CC1
readout_type: pEC50
result: 6.00 to 6.70

compound: C=CC(=O)N1CC(c2cc3c(Nc4ccc(Cl)c(Cl)c4F)ncnc3cc2OCCN2CCN(C)CC2)C1
readout_type: pEC50
result: ≥ 6.70

compound: C=CC(=O)N1CC(c2cc3c(Nc4ccc(Cl)c(Cl)c4F)ncnc3cc2OC(F)F)C1
readout_type: pEC50
result: 6.00 to 6.70

compound: C=CC(=O)N1CCC(Oc2cc3c(Nc4ccc5cnn(C)c5c4)ncnc3cc2OC)CC1
readout_type: pEC50
result: ≥ 6.70

compound: COc1cc2ncnc(Nc3ccc(Cl)c(Cl)c3F)c2c([N+](=O)[O-])c1OC1CCNCC1 [Compound 207, hydrochloride]
readout_type: pEC50
result: 6.00 to 6.70

compound: C=CC(=O)N1CC(c2cc3c(Nc4ccc5ccccc5c4)ncnc3cc2OC)C1
readout_type: pEC50
result: 6.00 to 6.70

compound: C=CC(=O)NC1CC(Oc2cc3c(Nc4ccc(Cl)c(F)c4Cl)ncnc3cc2OC)C1 (centres unmarked)
readout_type: pEC50
result: 6.00 to 6.70

compound: COc1cc2ncnc(Nc3ccc(Cl)c(Cl)c3F)c2cc1OC1CC(N(C)C#N)C1 (centres unmarked)
readout_type: pEC50
result: 6.00 to 6.70

compound: C=CC(=O)N1CCC(Oc2cc3c(Nc4cccc5cc[nH]c45)ncnc3cc2OC)CC1
readout_type: pEC50
result: ≥ 6.70

Each recorded value in this set is attributed to patent US20250243171A1.
